System: NCI-H23
test: NCI 60 cell line screen
Type: cell-based, human
test_context: Homo sapiens; NCI-H23, Non-Small Cell Lung Cancer; read-out: Percent growth
parameter: activity at 10 µM
Show the value, then the unit it is measured in.

// worked examples, activity at 10 µM included
COc1ccc(S(=O)(=O)NCCCNc2nccc(-n3cnc4ccccc43)n2)cc1 [12m] | 91.9%
O=S(=O)(NCCCNc1nccc(-n2cnc3ccccc32)n1)c1ccc(Br)cc1 [12k] | 92.8%
Cc1ccc(S(=O)(=O)NCCNc2nccc(-n3cnc4ccccc43)n2)cc1 [12g] | 74.6%
O=S(=O)(NCCNc1nccc(-n2cnc3ccccc32)n1)c1ccc(Br)cc1 [12d] | 97.3%
O=S(=O)(NCCNc1nccc(-n2cnc3ccccc32)n1)c1ccc(F)cc1 [12b] | 95.8%

What value of activity at 10 µM has been recorded for this entry: O=S(=O)(NCCNc1nccc(-n2cnc3ccccc32)n1)c1ccc(Cl)cc1 [12c] 101%

O=S(=O)(NCCNc1nccc(-n2cnc3ccccc32)n1)c1ccccc1 [12a] ? 96.4%

Next record, please: O=S(=O)(NCCCNc1nccc(-n2cnc3ccccc32)n1)c1ccccc1 [12h] 91.8%

What about O=S(=O)(NCCCNc1nccc(-n2cnc3ccccc32)n1)c1cccc2ccccc12 [12n] ? 91.3%

Another compound to check: COc1ccc(S(=O)(=O)NCCNc2nccc(-n3cnc4ccccc43)n2)cc1 [12f] 96.9%
